Tested on: PC-3 prostate
Procedure text: NCI tumour cell line growth inhibition, 48 h
Reported values of TGI for individual entries

Example entries and their recorded answers appear below.
Fc1ccc2nc(-c3nc(-c4ccccc4)n4ccccc34)[nH]c2c1    4.24 µM
C=CCNC(=O)CN(CC(=O)OC)C1CCCCC1N(CC(=O)OC)CC(=O)OC (stereo not given)    > 100 µM
C[C@@H](NC(=O)c1ccc(F)cc1)c1ccc2c(c1)CCN2C(=O)C1CCOCC1    > 100 µM
CSC1=Nc2c(c(C)c(-c3ccccc3)n2COC(CO)CO)C2=NC(=O)CN12    > 100 µM
CN1CCCC1c1cccnc1.O=C(O)c1ccccc1O.O=C([O-])c1ccccc1[OH2+].O=C([O-])c1ccccc1[OH2+].[Mn+2] (stereo not given)    > 100 µM

As a next step, examine the compound that follows.
QUERY: Name the recorded TGI of the compound listed here: COc1cc(/C=C/C(=O)O[C@H]2[C@H](O[C@@H]3O[C@@H](C)[C@H](O)[C@@H](O)[C@H]3O)[C@@H](O)[C@H](OCCc3ccc(O)c(O)c3)O[C@@H]2COC2OCC(O)(CO)C2O)ccc1O (stereo not given in full)
RESULT: > 100 µM

###

Test system: MDA-MB-435
Bench note: report the call from active, inactive

Consider the worked cases shown below.
CCn1ccnc1C(=O)/C=C/c1ccc(CC(=O)Nc2ccc(F)cc2)cc1    inactive
CN(C)CCCn1c2c(c3cc4c(cc3c1=O)OCO4)C(=O)c1ccccc1-2    inactive
COc1ccc(/C=N\Nc2nc(SCC(C)C)nc(-c3ccc(OC)cc3)c2C#N)cc1    inactive
COc1ccc(S(=O)(=O)N2CCNCC2)cc1OC    inactive
c1ccc(C2CCCCC2)c(OCCCCCN2CCNCC2)c1    inactive

QUERY: Tell me the assay call for COC1=C(OC)[C@]2(OC)c3c(O)c(OC)c4c(c3O[C@@]23O[C@@H](c2ccccc2)CC=C3C1=O)[C@@H](OC)C[C@H](c1ccccc1)O4 please.
RESULT: active

QUERY: Hi, do you know how COCCOCCOCCOCCOC(=O)OC[n+]1ccc(NC(=NCCCCCCOc2ccc(Cl)cc2)NC#N)cc1 came out in this test?
RESULT: active

QUERY: Tell me the assay call for Nc1nc2ccccc2c2c1S(=O)(=O)c1ccc(Cl)cc1C2=O please.
RESULT: inactive

###

We begin with a simple list: items and their reported TGI.
System: SF-539 CNS
Procedure text: NCI tumour cell line growth inhibition, 48 h

Use the examples below as a reference point.
c1ccc(C2=C(c3ccccc3)Sc3nnc(CCCCCCCCc4nnc5n4NC(c4ccccc4)=C(c4ccccc4)S5)n3N2)cc1    > 100 µM
CCc1ccccc1NC(=O)CC1NC(=O)CS1 (centres undefined)    > 100 µM
CCOC(=O)C(CCCNC(=O)OC(C)(C)C)N(Cc1ccc(OC)cc1OC)C(=O)CC(=O)CP(=O)(OCC)OCC (centres undefined)    > 100 µM
Cc1cn(C2CC(O)C(Cn3nncc3Cn3ncc(=O)[nH]c3=O)O2)c(=O)[nH]c1=O (centres undefined)    > 100 µM
C=C1C(=O)O[C@H]2[C@H]1CC/C(COC(=O)NCc1c[nH]c3ccc(F)cc13)=C\CC[C@@]1(C)O[C@@H]21    3.36 µM
N#Cc1cc2c(cc1Cl)Sc1nnc(Nc3cccc4ccccc34)n1S2(=O)=O    5.2 µM

QUERY: Would you please give the reported TGI of COc1cc(C(=O)O)c(-c2cc3c(cc2C=O)OCO3)c(OC)c1OC with SF-539 CNS?
RESULT: > 10 µM

QUERY: Quote SF-539 CNS TGI for entry CCC(=O)C(CCN1CCC(N2C(=O)C(CCC#N)c3ccccc32)CC1)(c1ccccc1)c1ccccc1 (centres undefined) .
RESULT: 34.5 µM

QUERY: Supply TGI measured with SF-539 CNS for Nc1c(Cl)cc(-c2nc3ccccc3s2)cc1Cl .
RESULT: > 100 µM

###

Tested on: T-47D breast
Procedure text: NCI tumour cell line growth inhibition, 48 h
Parameter: TGI

COc1cc(C(=O)O)c(-c2cc3c(cc2C=O)OCO3)c(OC)c1OC    > 10 µM
O=C(c1cc(Cc2n[nH]c(=O)c3ccccc23)ccc1F)N1CCN(C(=O)C2CC2)CC1    > 100 µM
O=C(O)CCCc1ccccc1    > 1000 µM
N#Cc1cc2c(cc1Cl)Sc1nnc(Nc3cccc4ccccc34)n1S2(=O)=O    3.67 µM
O=C(O)CC12CC3CC(CC(O)(C3)C1)C2    > 100 µM
O=C1C(Sc2ccc3ccccc3c2)=C(Sc2ccc3ccccc3c2)C(=O)c2ccccc21    4.62 µM
C=CCNC(=O)CN(CC(=O)O)C1CCCCC1N(CC(=O)O)CC(=O)O (stereo unspecified)    > 100 µM
O=C(NCCCCCCCN1CCCCCCC1)C(C1CCCCC1)C1CCCCC1    23 µM

QUERY: Give TGI for the following compound: CNC(=O)CCCNC(=O)CCCC(=O)OC
RESULT: > 100 µM

QUERY: Query TGI for OC1COC(OCc2ccccc2)C(O)C1O (stereo unspecified)
RESULT: > 100 µM

###

Tested on: NCI-H522 lung
Procedure text: NCI tumour cell line growth inhibition, 48 h
Parameter: log10 TGI (log10 of the value in µM)
Reminder: these figures are log10 of reported TGI, in µM before transformation.

Answered cases to consult:
COC(=O)CCC(NC(=S)N/N=C(\C)c1cnccn1)C(=O)OC (centres undefined)    1.92
COc1ccc(NC/C=C/C(=C/COC(C)=O)OC(C)=O)cc1    0.68
O=C(c1ccco1)c1c(C(F)(F)F)n([O-])c2cc(F)c(F)cc2[n+]1=O    0.74
CC1CCN(CCOc2ccc(CNc3ccc4nc(CCC5CCCCC5)[nH]c4c3)cc2)CC1    0.55
CC(C)=CC(=O)OC1C2C(C)=CC(O)C(O)C2(C)C2C3(O)OCC24C(CC(=O)OC14)C(C)C3O (centres undefined)    -0.99

QUERY: Kindly indicate its recorded log10 TGI. Item: COc1ccc(/C=N\Nc2nc(SCC(C)C)nc(-c3ccc(OC)cc3)c2C#N)cc1
RESULT: 1.80

QUERY: # return recorded log10 TGI for input C=C1C(=O)O[C@H]2[C@H]1CC/C(COC(=O)NCc1c[nH]c3ccc(F)cc13)=C\CC[C@@]1(C)O[C@@H]21
RESULT: 0.38

QUERY: Find the measured log10 TGI of COC1=C(OC)[C@]2(OC)c3c(O)c(OC)c4c(c3O[C@@]23O[C@@H](c2ccccc2)CC=C3C1=O)[C@@H](OC)C[C@H](c1ccccc1)O4 and report it.
RESULT: -0.12

###

Item-by-item account of TGI
Tested on: OVCAR-5 ovarian
Procedure text: NCI tumour cell line growth inhibition, 48 h
Reply with just the number (in µM).

COc1ccc(/C=C/c2cc(OC)c(OCc3ccccc3)c(OC)c2)cc1    94.5

As a next step, examine the compound that follows.
QUERY: Retrieve TGI measured for O=C(c1ccco1)c1c(C(F)(F)F)n([O-])c2cc(F)c(F)cc2[n+]1=O and print it.
RESULT: 2.38

###

GI50 listing for selected compounds.
Test system: SNB-19 CNS
Procedure text: NCI tumour cell line growth inhibition, 48 h

Worked cases, GI50 given:
[Cl][Cu][Cl]    > 10 µM
C=C1C(=O)O[C@H]2[C@H]1CC/C(COC(=O)NCc1c[nH]c3ccc(F)cc13)=C\CC[C@@]1(C)O[C@@H]21    6.56 µM
N#C/C(=C\c1cc2ccc(N3CCC3)cc2oc1=O)C(=O)N(CC(=O)O)CC(=O)O    > 100 µM
CC1CCN(CCOc2ccc(CNc3ccc4nc(CCC5CCCCC5)[nH]c4c3)cc2)CC1    2.03 µM

Next:
QUERY: Report measured GI50; entry is CCN(Cc1ccc(F)cc1)c1ccc(CO)c(C(F)(F)F)c1
RESULT: 15.3 µM

###

Tested on: SW-620 colon
Procedure text: NCI tumour cell line growth inhibition, 48 h
TGI listing for selected compounds.

Check out these entries, answers already filled in.
O=C(Nc1nc2ncn(CCO)c2c(=O)[nH]1)c1ccccc1    > 100 µM
CC(C)=CCC/C(C)=C/CCC1(C)C=Cc2c(c3ccccc3oc2=O)O1 (stereo unspecified)    33.7 µM
C#CCNC(=O)NC(CCCCNC(=O)OCc1ccccc1)C(=O)OCc1ccccc1 (stereo unspecified)    > 100 µM
Cn1c(C(=O)c2cccc3ccccc23)nc2ccccc21    > 100 µM
Cc1c(C2=NN=C(N=Nc3c(O)cccc3O)/C2=C/c2ccccc2)c(=O)n(-c2ccccc2)n1C    > 100 µM
Cc1ccc(C2=Nc3ccccc3SC(c3cccc4c3OCO4)C2)cc1 (stereo unspecified)    39.8 µM

QUERY: Dear colleague, please send me the reported TGI for COc1cc(-c2ncn(/C=C\c3nnco3)n2)cc(C(F)(F)F)c1 when you can.
RESULT: 31.7 µM
